# Tested system: T1, BK virus VP1 protein, genotype I (BK virus, UniProt P03088 1-362)
# T1 sequence: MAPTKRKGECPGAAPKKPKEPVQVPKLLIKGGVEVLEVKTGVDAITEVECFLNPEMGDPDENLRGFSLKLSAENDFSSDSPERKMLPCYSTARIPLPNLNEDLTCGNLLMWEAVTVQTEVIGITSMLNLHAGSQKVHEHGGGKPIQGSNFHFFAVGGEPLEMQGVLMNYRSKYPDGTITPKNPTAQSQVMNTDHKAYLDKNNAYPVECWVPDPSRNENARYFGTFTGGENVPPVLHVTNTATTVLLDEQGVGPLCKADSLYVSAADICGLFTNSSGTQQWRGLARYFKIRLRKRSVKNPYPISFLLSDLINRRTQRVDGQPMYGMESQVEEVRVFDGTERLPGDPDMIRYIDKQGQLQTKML
# Test protocol: cell-based or functional assay
Parameter measured: EC50, pseudovirus neutralization

6E1 (antibody, V domains shown) VH: EVQLLESGGGLVQPGGSLRLSCAASGFTFSSFAMSWVRQAPGKGLEWVSGISGSGGSTYYADSVKGRFTISRDNSKNTLYLQMNSLRAEDTAIYYCAKDKRNWNYGIDSFDFWGQGTMVTVSS VL: DIQMTQSPSSLSASVGGRVTITCRTSQSISGYLNWYQQKAGKAPKLLIYATSNLQSGVPSRFTGSGSGTDFTLTISSLQPEDFAAYYCHQSHSPPFTFGPGTKVAFK; 2.95 pM
9H9 (antibody, V domains shown) VH: EVQLVESGGGLVQPGGSLRLSCAASGFTFSSYEMNWVRQAPGKGLEWVSYISSGGSSIKYADSVRGRFTFSRDNAENSVHLQMNSLRGEDTAVYYCARVGGSYYYSYAMDVWGQGTAVTVSS VL: DIQLTQSPSFLSASVGDRVTITCWASQDISSYLAWYQQKPGKAPKLLIYAASTLQSGVPSRFSGSGSGTEFTLTISSLQPEDFATYYCQQPNNYPFSFGPGTKVDVK; 8.7 pM
7E5 (antibody, V domains shown) VH: EVQLLESGGGLIQPGGSLRLSCAASGFTFSGFAMSWVRQAPGKGLEWVSGISGSGDITYYGDSVKGRFTISRDNSKSTLYLQMNSLRDADTAVYYCGKDPYNWNHGVYGMDVWGQGTTVTVSS VL: DIQMTQSPSSLSASVGDRVTITCRASQSISTYLNWYQQKPGKAPKFLIYGASSLQSGVPSRFSGSGSGTDFSLTISSLHPGDFATYYCQQSYNIPLTFGGGTKVEIK; 24.9 pM
2A10 (antibody, V domains shown) VH: EVQLVQSGAEVKKPGESLKISCKGSGYSFTYYWIGWVRQMPGKGLEWMGIIYPGDSDTRYSPSFQGQVTISADKSISTAYLQWSSLKASDTAMYYCTTHARNWNNVAYWGQGTLVTVSS VL: DIQMTQSPSSLSASVGDRLTITCRASQNINTFLNWYQQNPGKAPKVLIYAASSLESGVPSRFSGSGSGTDFTLTISSLQPEDFATYYCQQSSSTPWTFGQGTKVEIK; > 6670 pM

Kindly review the next binder as well.
Value of EC50, pseudovirus neutralization reported for the binder 2F11 (antibody, V domains shown) VH: EVQLVQSGAEVKKPGESLKISCKGSGYSFTNYWIGWVRQMPGKGLEWMGIIYPGDSDTRYSPSFQGQVTLSADKSISTAYLQWNSLKASDTAMYYCATHARSWNYVAYWGQGTLVTVAS VL: DIQMTQSPSSLSASVGDRVTITCRASQSVNNFLNWYQQKPGTAPKLLIYAASSLQGGVPSRFSGSGSGTDFTLTISSLQPEDFATYYCQQSNTTPWTFGQGTKVEIK is > 6670 pM
